All values here come from PubChem BioAssay (NCATS).

# experiment: Cell Viability - LYMP2-010 (AID 981);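 further: cells exposed to compound for 24 hours at 37 °C; nearly all actives have a fitted effect of over 55% in size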
# testSettings: LYMP2-010 lymphoblastoid cell viability, qHTS; series mostly up to 92.2 µM
# Description: NIH Chemical Genomics Center [NCGC] NIH Molecular Libraries Screening Centers Network [MLSCN] National Institutes of Environmental Health Sciences [NIEHS] National Toxicology Program [NTP] We have developed a 1536-well cell-based assay for quantitative high throughput screening (qHTS) against a number of cell lines to determine in vitro cytotoxicity of small molecules. […] 8. Detection; Luminescence; Viewlux plate reader […]
Inconclusive results are not listed. The source made the active and inactive calls. The call rests on the fitted dose curve; in most records, active means well fitted cell-killing curve with a large enough effect; inconclusive means small, poorly fitted or top-dose-only effect; inactive means flat fitted curve, though single readings scatter.
Field 'call' accepts active, inactive

# count of solved cases: 5
Asked: Assay result, entry `Oc1ccc(/C=C/c2cc(O)cc(O)c2)cc1` — outcome?
Given back: inactive

Asked: Hi team, can someone confirm the assay call for `CCCCC` ?
Given back: inactive

Asked: Hello, I am checking results. What call was entered for `OCC(O)CO` ?
Given back: inactive

Asked: Please state the recorded outcome for this compound: `CCOC(C)OCC`
Given back: inactive

Asked: How did this test come out for O=c1n(CC2CO2)c(=O)n(CC2CO2)c(=O)n1CC1CO1 (stereo not given) ?
Given back: active

---
Asked: Could you kindly confirm the outcome this assay logged for CC1=CCC2CC1C2(C)C (stereo not given) ?
Given back: inactive

Asked: Tell me the recorded outcome of this test for `CO` .
Given back: inactive

Asked: Name the outcome recorded for `CC1=CC(=O)NS(=O)(=O)O1` in the assay.
Given back: inactive

Asked: I'd appreciate the recorded outcome for `Nc1ccc(N=Nc2ccccc2)c(N)n1` from this test.
Given back: inactive

Asked: Outcome logged for C=C1C(CCl)(CCl)C2(Cl)C(Cl)C(Cl)C1(Cl)C2(Cl)Cl (stereo not given) in this assay:
Given back: active

Asked: In this assay, the call recorded for `OB(O)O` was what?
Given back: inactive

Asked: How was `CC(C)(C)CC(C)(C)c1ccc(OCCO)cc1` classified in this test?
Given back: inactive

Asked: Could you please tell me the result logged for `O=P(O)(O)O` in this assay?
Given back: inactive

Asked: Test call for this compound, please: `C[C@H](CCC(=O)O)[C@H]1CC[C@H]2[C@@H]3[C@H](O)C[C@@H]4C[C@H](O)CC[C@]4(C)[C@H]3C[C@H](O)[C@]12C`
Given back: inactive

Asked: Hello, I am checking results. What call was entered for `CCCCO` ?
Given back: inactive
